Please go through the items and note down their IC50.
Molecular target: Cytochrome P450 1A1 (Homo sapiens)
Sequence (P04798 whole entry): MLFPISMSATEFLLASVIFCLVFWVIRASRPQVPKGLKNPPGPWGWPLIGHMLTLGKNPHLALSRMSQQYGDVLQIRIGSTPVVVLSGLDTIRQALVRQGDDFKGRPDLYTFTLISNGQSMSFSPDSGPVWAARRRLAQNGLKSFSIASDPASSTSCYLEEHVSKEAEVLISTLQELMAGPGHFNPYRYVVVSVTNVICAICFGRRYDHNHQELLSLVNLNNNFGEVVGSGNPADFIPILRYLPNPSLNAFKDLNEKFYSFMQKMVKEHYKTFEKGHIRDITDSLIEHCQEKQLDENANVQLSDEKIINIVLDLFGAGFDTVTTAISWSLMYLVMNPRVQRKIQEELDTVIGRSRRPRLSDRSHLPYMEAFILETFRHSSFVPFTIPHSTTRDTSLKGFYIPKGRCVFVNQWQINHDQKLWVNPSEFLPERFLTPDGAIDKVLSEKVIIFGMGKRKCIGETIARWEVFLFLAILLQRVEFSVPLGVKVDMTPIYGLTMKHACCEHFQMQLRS
Assay: Inhibition of recombinant human CYP1A1 incubated for 25 mins using 7-ethyl-O-resorufin substrate in presence of NADPH regenerating system by fluorescence based ethoxyresorufin-O-deethylase assay
Numbers only, in µM.

C#C[C@]1(O)CC[C@H]2[C@@H]3CCc4cc(O)c(-c5ccc(OC)cc5)cc4[C@H]3CC[C@@]21C : 9.2
C[C@]12CC[C@@H]3c4cc(-c5ccc(F)cc5)c(O)cc4CC[C@H]3[C@@H]1CC[C@@H]2O : 4.9
O=c1cc(-c2ccccc2)oc2c1ccc1ccccc12 [ALPHA-NAPHTHOFLAVONE] : 2.7

Look at this molecule and give its reported IC50. "C[C@]12CC[C@@H]3c4cc(-c5ccncc5)c(O)cc4CC[C@H]3[C@@H]1CC[C@@H]2O"
3.9

---

Please go through the items and note down their inhibition at 0.75 h, 0.3 µM.
Molecular target: CYP1B1 (Homo sapiens, UniProt Q16678)
Sequence (Q16678 whole entry): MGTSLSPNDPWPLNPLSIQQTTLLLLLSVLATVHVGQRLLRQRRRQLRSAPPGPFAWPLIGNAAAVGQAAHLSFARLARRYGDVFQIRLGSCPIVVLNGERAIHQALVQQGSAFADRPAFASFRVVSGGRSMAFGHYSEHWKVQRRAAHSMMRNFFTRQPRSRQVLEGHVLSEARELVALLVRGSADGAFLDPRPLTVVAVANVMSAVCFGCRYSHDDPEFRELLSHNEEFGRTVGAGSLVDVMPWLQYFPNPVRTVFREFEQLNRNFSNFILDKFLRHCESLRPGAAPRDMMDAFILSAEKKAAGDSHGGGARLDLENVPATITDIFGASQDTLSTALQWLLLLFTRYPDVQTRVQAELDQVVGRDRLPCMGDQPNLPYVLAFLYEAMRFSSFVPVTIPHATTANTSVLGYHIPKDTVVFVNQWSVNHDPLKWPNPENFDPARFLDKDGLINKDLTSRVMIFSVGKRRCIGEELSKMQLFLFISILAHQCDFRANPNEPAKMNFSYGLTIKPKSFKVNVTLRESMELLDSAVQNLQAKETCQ
Test: Inhibition of recombinant human CYP1B1 at 0.3 uM incubated for 45 mins using 7-ethyl-O-resorufin substrate in presence of NADPH regenerating system by fluorescence based ethoxyresorufin-O-deethylase assay
Details: recombinant human CYP1B1, probe 7-ethyl-O-resorufin (7-ethoxyresorufin)
Answers are plain numbers, in %.

For every listed record, write down its inhibition at 0.75 h, 0.3 µM.
1. C[C@]12CC[C@@H]3c4cc(-c5ccc(F)cc5)c(O)cc4CC[C@H]3[C@@H]1CCC2=O
2. C[C@]12CC[C@@H]3c4cc(-c5ccccc5)c(O)cc4CC[C@H]3[C@@H]1CC[C@@H]2O
3. COc1ccc(-c2cc3c(cc2OC)CC[C@@H]2[C@@H]3CC[C@]3(C)C(=O)CC[C@@H]23)cc1
4. C[C@]12CC[C@@H]3c4ccc(S(C)(=O)=O)cc4CC[C@H]3[C@@H]1CCC2=O
5. C[C@]12CC[C@@H]3c4cc(-c5cccc(O)c5)c(O)cc4CC[C@H]3[C@@H]1CCC2=O
6. C[C@]12CC[C@@H]3c4cc(-c5cccc(Cl)c5)c(O)cc4CC[C@H]3[C@@H]1CC[C@@H]2O
7. C[C@]12CC[C@@H]3c4cc(-c5ccccc5)c(O)cc4CC[C@H]3[C@@H]1CCC2=O
8. C#C[C@]1(O)CC[C@H]2[C@@H]3CCc4cc(OC)c(-c5ccc(OC)cc5)cc4[C@H]3CC[C@@]21C

71
82
38
7
92
91
69
6

# credit: ChEMBL document CHEMBL4196212
